Test system: Escherichia coli ATCC 25922
Test: Oral formulations on mice with systemic bacterial infection
Type: in vivo, ICR mice
Details: 0.2 mg/kg gavage, three times a day for 7 days, n = 10
Non-standard residues stand in square brackets, D forms with d. Residues, ends and D or L forms follow the SMILES beside them.
readout.kind: Number of mice that died on each day after infection: day 5 (Mouse)
Answers are plain numbers, in Mouse.

Query (compound): CC(=O)N[C@H](CCCNC(=N)N)C(=O)N[C@H](CCCCN)C(=O)N[C@H](CC(C)C)C(=O)N[C@H](CC(C)C)C(=O)N[C@H](Cc1ccccc1)C(=O)N[C@H](CCCNC(=N)N)C(=O)N[C@H](CC(C)C)C(=O)N[C@H](CCCCN)C(=O)N[C@H](Cc1ccccc1)C(=O)N[C@H](CCCNC(=N)N)C(=O)N[C@H](CCCCN)C(N)=O [LV-2] (Ac-[dR][dK][dL][dL][dF][dR][dL][dK][dF][dR][dK]-NH2) ; field requested: Number of mice that died on each day after infection: day 5 2

###

Test: Serum stability assay (residual level by RP-HPLC)
Conditions: human
Non-standard residues stand in square brackets, D forms with d. Residues, ends and D or L forms follow the SMILES beside them. dPhe(3,4-F2) = N[C@H](Cc1ccc(F)c(F)c1)C(=O)O; dPhe(4-Me) = Cc1ccc(C[C@@H](N)C(=O)O)cc1; d2Nal = N[C@H](Cc1ccc2ccccc2c1)C(=O)O; dNva = CCC[C@@H](N)C(=O)O
readout.kind: remaining at 12 h, 0.91 mg/mL (%)
Answers are plain numbers, in %.

>  <molecule>
CC(=O)N[C@H](CCCNC(=N)N)C(=O)N[C@H](CCCNC(=N)N)C(=O)N[C@H](CC(C)C)C(=O)N[C@H](CC(C)C)C(=O)N[C@H](Cc1ccc2ccccc2c1)C(=O)N[C@H](CCCNC(=N)N)C(=O)N[C@H](CC(C)C)C(=O)N[C@H](CCCCN)C(=O)N[C@H](Cc1ccc2ccccc2c1)C(=O)N[C@H](CCCNC(=N)N)C(=O)N[C@H](CCCCN)C(N)=O [LV-21] (Ac-[dR][dR][dL][dL][d2Nal][dR][dL][dK][d2Nal][dR][dK]-NH2)

>  <unit.of.measurement>
%

>  <remaining at 12 h, 0.91 mg/mL>
97.9

$$$$
>  <molecule>
CC(=O)N[C@H](CCCCN)C(=O)N[C@H](CCCCN)C(=O)N[C@H](CC(C)C)C(=O)N[C@H](CC(C)C)C(=O)N[C@H](Cc1ccc(F)c(F)c1)C(=O)N[C@H](CCCNC(=N)N)C(=O)N[C@H](CC(C)C)C(=O)N[C@H](CCCCN)C(=O)N[C@H](Cc1ccc(F)c(F)c1)C(=O)N[C@H](CCCNC(=N)N)C(=O)N[C@H](CCCCN)C(N)=O [LV-25] (Ac-[dK][dK][dL][dL][dPhe(3,4-F2)][dR][dL][dK][dPhe(3,4-F2)][dR][dK]-NH2)

>  <unit.of.measurement>
%

>  <remaining at 12 h, 0.91 mg/mL>
97.8

$$$$
>  <molecule>
CC(=O)N[C@H](CCCNC(=N)N)C(=O)N[C@H](CCCCN)C(=O)N[C@H](CC(C)C)C(=O)N[C@H](CC(C)C)C(=O)N[C@H](Cc1ccc(F)c(F)c1)C(=O)N[C@H](CCCCN)C(=O)N[C@H](CC(C)C)C(=O)N[C@H](CCCCN)C(=O)N[C@H](Cc1ccc(F)c(F)c1)C(=O)N[C@H](CCCCN)C(=O)N[C@H](CCCNC(=N)N)C(N)=O [LV-6] (Ac-[dR][dK][dL][dL][dPhe(3,4-F2)][dK][dL][dK][dPhe(3,4-F2)][dK][dR]-NH2)

>  <unit.of.measurement>
%

>  <remaining at 12 h, 0.91 mg/mL>
98

$$$$
>  <molecule>
CC(=O)N[C@H](CCCNC(=N)N)C(=O)N[C@H](CCCCN)C(=O)N[C@H](CC(C)C)C(=O)N[C@H](CC(C)C)C(=O)N[C@H](Cc1ccc2ccccc2c1)C(=O)N[C@H](CCCNC(=N)N)C(=O)N[C@H](CC(C)C)C(=O)N[C@H](CCCCN)C(=O)N[C@H](Cc1ccc2ccccc2c1)C(=O)N[C@H](CCCNC(=N)N)C(=O)N[C@H](CCCCN)C(N)=O [LV-20] (Ac-[dR][dK][dL][dL][d2Nal][dR][dL][dK][d2Nal][dR][dK]-NH2)

>  <unit.of.measurement>
%

>  <remaining at 12 h, 0.91 mg/mL>
98.2

$$$$

# batch size: 6; output remaining at 12 h, 0.91 mg/mL per entry
1. CC(=O)N[C@H](CCCNC(=N)N)C(=O)N[C@H](CCCCN)C(=O)N[C@H](CC(C)C)C(=O)N[C@H](CC(C)C)C(=O)N[C@H](Cc1ccc(C)cc1)C(=O)N[C@H](CCCCN)C(=O)N[C@H](CC(C)C)C(=O)N[C@H](CCCCN)C(=O)N[C@H](Cc1ccc(C)cc1)C(=O)N[C@H](CCCCN)C(=O)N[C@H](CCCNC(=N)N)C(N)=O [LV-11] (Ac-[dR][dK][dL][dL][dPhe(4-Me)][dK][dL][dK][dPhe(4-Me)][dK][dR]-NH2)
2. CC(=O)N[C@H](CCCNC(=N)N)C(=O)N[C@H](CCCCN)C(=O)N[C@@H](C(=O)N[C@@H](C(=O)N[C@H](Cc1ccc2ccccc2c1)C(=O)N[C@H](CCCNC(=N)N)C(=O)N[C@@H](C(=O)N[C@H](CCCCN)C(=O)N[C@H](Cc1ccc2ccccc2c1)C(=O)N[C@H](CCCNC(=N)N)C(=O)N[C@H](CCCCN)C(N)=O)C(C)C)C(C)C)C(C)C [LV-16] (Ac-[dR][dK][dV][dV][d2Nal][dR][dV][dK][d2Nal][dR][dK]-NH2)
3. CC(=O)N[C@H](CCCNC(=N)N)C(=O)N[C@H](CCCCN)C(=O)N[C@H](C)C(=O)N[C@H](C)C(=O)N[C@H](Cc1ccc2ccccc2c1)C(=O)N[C@H](CCCNC(=N)N)C(=O)N[C@H](C)C(=O)N[C@H](CCCCN)C(=O)N[C@H](Cc1ccc2ccccc2c1)C(=O)N[C@H](CCCNC(=N)N)C(=O)N[C@H](CCCCN)C(N)=O [LV-15] (Ac-[dR][dK][dA][dA][d2Nal][dR][dA][dK][d2Nal][dR][dK]-NH2)
4. CCC[C@@H](NC(=O)[C@@H](CCCCN)NC(=O)[C@@H](CCCNC(=N)N)NC(C)=O)C(=O)N[C@H](CCC)C(=O)N[C@H](Cc1ccc2ccccc2c1)C(=O)N[C@H](CCCNC(=N)N)C(=O)N[C@H](CCC)C(=O)N[C@H](CCCCN)C(=O)N[C@H](Cc1ccc2ccccc2c1)C(=O)N[C@H](CCCNC(=N)N)C(=O)N[C@H](CCCCN)C(N)=O [LV-13] (Ac-[dR][dK][dNva][dNva][d2Nal][dR][dNva][dK][d2Nal][dR][dK]-NH2)
5. CC(=O)N[C@H](CCCNC(=N)N)C(=O)N[C@H](CCCCN)C(=O)N[C@H](CC(C)C)C(=O)N[C@H](CC(C)C)C(=O)N[C@H](Cc1ccccc1)C(=O)N[C@H](CCCNC(=N)N)C(=O)N[C@H](CC(C)C)C(=O)N[C@H](CCCCN)C(=O)N[C@H](Cc1ccccc1)C(=O)N[C@H](CCCNC(=N)N)C(=O)N[C@H](CCCCN)C(N)=O [LV-2] (Ac-[dR][dK][dL][dL][dF][dR][dL][dK][dF][dR][dK]-NH2)
6. CC(=O)N[C@H](CCCNC(=N)N)C(=O)N[C@H](CCCCN)C(=O)N[C@H](CC(C)C)C(=O)N[C@H](CC(C)C)C(=O)N[C@H](Cc1ccc2ccccc2c1)C(=O)N[C@H](CCCNC(=N)N)C(=O)N[C@H](CC(C)C)C(=O)N[C@H](CCCCN)C(=O)N[C@H](Cc1ccccc1)C(=O)N[C@H](CCCNC(=N)N)C(=O)N[C@H](CCCCN)C(N)=O [LV-4] (Ac-[dR][dK][dL][dL][d2Nal][dR][dL][dK][dF][dR][dK]-NH2)

98.3
98.4
97.3
98.5
97.4
98.7
